Exercise: for every item that follows, state its recorded half-life.
# Protocol: Phase 1 open-label, fixed-sequence, single-ascending dose and food-effect PK study of MT1621 in adult healthy subjects
# Assay type: in vivo, human
# Particulars: both sexes, human, plasma, oral, 43.3 mg/kg, Treatment A: single 43.3 mg/kg MT1621, fasted; baseline-adjusted plasma; arithmetic mean ± SD; read-out: t½ (converted)

In [3]: df
Out[3]:
                            chemical_string  measurement
0  Nc1ccn([C@H]2C[C@H](O)[C@@H](CO)O2)c(=O)n1       10.3 h

For `Cc1cn([C@H]2C[C@H](O)[C@@H](CO)O2)c(=O)[nH]c1=O` the compound record lists half-life as 4.42 h

----------
# Protocol: Phase 1 open-label, fixed-sequence, single-ascending dose and food-effect PK study of MT1621 in adult healthy subjects
# Type: in vivo, human
# Particulars: both sexes, human, plasma, oral, 133.3 mg/kg, Treatment D, fed; baseline-adjusted plasma; ANOVA on ln-transformed data; read-out: Cmax Geometric LSM, 133.3 mg/kg MT1621, Fed (Test)
Observable: Cmax

Quick one: give me Cmax for each item below, same order please.
1. Cc1cn([C@H]2C[C@H](O)[C@@H](CO)O2)c(=O)[nH]c1=O [dT, β-D-2′-deoxythymidine]
2. Nc1ccn([C@H]2C[C@H](O)[C@@H](CO)O2)c(=O)n1 [dC, β-D-2′-deoxycytidine]

Output:
40.1 ng/mL
12.8 ng/mL

----------
# Protocol: Pooled population PK analysis of dC and dT (five studies: healthy volunteers, renal impairment, TK2d participants)
# Particulars: human, in vivo
# Experimental: A phase 2 study was conducted as an open-label continuation of treatment with MT1621 in participants with TK2designed to evaluate the safety, tolerability, and PK of MT1621 (fixed dose combination of dC and dT supplied in a single packet). […] The early protocol for deoxycytidine and deoxythymidine administration was for the participants to take the drug product without regard to food. […] And, the lower limit of quantification (LLOQ) was 0.5 ng/mL for both dC and dT. […]
Observable: Vd/F (L)
Numbers only, in L.

For `Nc1ccn([C@H]2C[C@H](O)[C@@H](CO)O2)c(=O)n1` the compound record lists Vd/F as 278000

----------
# Protocol: Phase 1 open-label, fixed-sequence, single-ascending dose and food-effect PK study of MT1621 in adult healthy subjects
# Type: in vivo, human
# Particulars: both sexes, human, plasma, oral, 43.3 mg/kg, Treatment A: single 43.3 mg/kg MT1621, fasted; baseline-adjusted plasma; geometric mean (geometric CV %); read-out: Cmax
Exercise: for every item that follows, state its recorded Cmax.
Give bare numbers, in ng/mL.

In [3]: df
Out[3]:
                            chemical_string  output_unit  measurement
0  Cc1cn([C@H]2C[C@H](O)[C@@H](CO)O2)c(=O)[nH]c1=O        ng/mL         6.19

Now for a further compound.
For `Nc1ccn([C@H]2C[C@H](O)[C@@H](CO)O2)c(=O)n1` the compound record lists Cmax as 3.53

----------
# Protocol: Phase 1 open-label, fixed-sequence, single-ascending dose and food-effect PK study of MT1621 in adult healthy subjects
# Assay type: in vivo, human
# Particulars: both sexes, human, plasma, oral, 133.3 mg/kg, Treatment D: single 133.3 mg/kg MT1621, fed (high-fat breakfast); baseline-adjusted plasma; geometric mean (geometric CV %); read-out: AUC0-t
Observable: AUC(0-t) (ng·h/mL)
Numbers only, in ng·h/mL.

>>> df
                                   compound  observable  measurement
0  Cc1cn([C@H]2C[C@H](O)[C@@H](CO)O2)c(=O)[nH]c1=O [dT, β-D-2′-deoxythymidine]    AUC(0-t)          159

Now for a further compound.
For Nc1ccn([C@H]2C[C@H](O)[C@@H](CO)O2)c(=O)n1 [dC, β-D-2′-deoxycytidine] the compound record lists AUC(0-t) as 73

----------
# Protocol: Phase 1 open-label, fixed-sequence, single-ascending dose and food-effect PK study of MT1621 in adult healthy subjects
# Assay type: in vivo, human
# Particulars: both sexes, human, plasma, oral, 133.3 mg/kg, 133.3 mg/kg dose level; read-out: geometric mean elimination half-life (converted)
Observable: half-life
Respond with a number, then the unit of measure.

For `Nc1ccn([C@H]2C[C@H](O)[C@@H](CO)O2)c(=O)n1` the molecule record lists half-life as 3.01 h

----------
# Protocol: Phase 1 open-label, fixed-sequence, single-ascending dose and food-effect PK study of MT1621 in adult healthy subjects
# Format: in vivo, human
# Particulars: both sexes, human, oral; Treatment D: single 133.3 mg/kg MT1621, fed (high-fat breakfast); baseline-adjusted plasma; arithmetic mean ± SD; read-out: Vz/F
Exercise: for every item that follows, state its recorded Vd/F.

Quick one: give me Vd/F for each item below, same order please.
1. Cc1cn([C@H]2C[C@H](O)[C@@H](CO)O2)c(=O)[nH]c1=O
2. Nc1ccn([C@H]2C[C@H](O)[C@@H](CO)O2)c(=O)n1

Output:
1. 6220 L/kg
2. 1660 L/kg

----------
# Protocol: Phase 1 open-label, fixed-sequence, single-ascending dose and food-effect PK study of MT1621 in adult healthy subjects
# Type: in vivo, human
# Particulars: both sexes, human, plasma, oral, 133.3 mg/kg, Treatment D, fed; baseline-adjusted plasma; ANOVA on ln-transformed data; read-out: AUC0-t Geometric LSM, 133.3 mg/kg MT1621, Fed (Test)
Observable: AUC(0-t) (ng·h/mL)
Numbers only, in ng·h/mL.

In [3]: df
Out[3]:
                            chemical_string  observable  measurement
0  Cc1cn([C@H]2C[C@H](O)[C@@H](CO)O2)c(=O)[nH]c1=O    AUC(0-t)          159

Now for a further compound.
For `Nc1ccn([C@H]2C[C@H](O)[C@@H](CO)O2)c(=O)n1` the compound record lists AUC(0-t) as 73

----------
# Protocol: Phase 1 open-label, fixed-sequence, single-ascending dose and food-effect PK study of MT1621 in adult healthy subjects
# Format: in vivo, human
# Particulars: both sexes, human, plasma, oral, 133.3 mg/kg, Treatment C: single 133.3 mg/kg MT1621, fasted; baseline-adjusted plasma; arithmetic mean ± SD; read-out: t½ (converted)
Exercise: for every item that follows, state its recorded half-life.
Respond with a number, then the unit of measure.

                                   compound  observable  measurement
0  Cc1cn([C@H]2C[C@H](O)[C@@H](CO)O2)c(=O)[nH]c1=O [dT, β-D-2′-deoxythymidine]   half-life       8.76 h

Now for a further compound.
For Nc1ccn([C@H]2C[C@H](O)[C@@H](CO)O2)c(=O)n1 [dC, β-D-2′-deoxycytidine] the compound record lists half-life as 2.67 h

----------
# Protocol: Phase 1 open-label, fixed-sequence, single-ascending dose and food-effect PK study of MT1621 in adult healthy subjects
# Type: in vivo, human
# Particulars: both sexes, human, plasma, oral, 133.3 mg/kg, Treatment C, fasted; baseline-adjusted plasma; ANOVA on ln-transformed data; read-out: AUC0-t Geometric LSM, 133.3 mg/kg MT1621, Fasted (Reference)
Exercise: for every item that follows, state its recorded AUC(0-t).
Give bare numbers, in ng·h/mL.

In [3]: df
Out[3]:
                                   compound  measurement
0  Cc1cn([C@H]2C[C@H](O)[C@@H](CO)O2)c(=O)[nH]c1=O [dT, β-D-2′-deoxythymidine]         91.2

Now for a further compound.
For Nc1ccn([C@H]2C[C@H](O)[C@@H](CO)O2)c(=O)n1 [dC, β-D-2′-deoxycytidine] the compound record lists AUC(0-t) as 30.8

----------
# Protocol: Phase 1 open-label, fixed-sequence, single-ascending dose and food-effect PK study of MT1621 in adult healthy subjects
# Assay type: in vivo, human
# Particulars: both sexes, human, plasma, oral, 133.3 mg/kg, Treatment C: single 133.3 mg/kg MT1621, fasted; baseline-adjusted plasma; geometric mean (geometric CV %); read-out: AUC0-6
Exercise: for every item that follows, state its recorded AUC(0-t).
Answers are plain numbers, in ng·h/mL.

                                   compound  output_unit  measurement
0  Cc1cn([C@H]2C[C@H](O)[C@@H](CO)O2)c(=O)[nH]c1=O [dT, β-D-2′-deoxythymidine]      ng·h/mL         60.6

For Nc1ccn([C@H]2C[C@H](O)[C@@H](CO)O2)c(=O)n1 [dC, β-D-2′-deoxycytidine] the compound record lists AUC(0-t) as 21.1
